# tested_on: human recombinant PTP1B enzyme (Homo sapiens, UniProt P18031)
# Construct: purchased Enzo Life Sciences, USA BML-AK 822
# Sequence (P18031 1-322 limits assumed): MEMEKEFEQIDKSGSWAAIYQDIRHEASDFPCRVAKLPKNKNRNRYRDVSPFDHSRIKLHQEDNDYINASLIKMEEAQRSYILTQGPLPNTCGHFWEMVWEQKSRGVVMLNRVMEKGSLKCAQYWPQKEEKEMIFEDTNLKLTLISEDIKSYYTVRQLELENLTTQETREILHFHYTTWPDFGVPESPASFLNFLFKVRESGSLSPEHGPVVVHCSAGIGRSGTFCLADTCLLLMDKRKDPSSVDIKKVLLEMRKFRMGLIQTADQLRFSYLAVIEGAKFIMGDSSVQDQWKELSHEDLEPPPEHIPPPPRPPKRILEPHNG
# test_summary: Protein tyrosine phosphatase-1B assay (colorimetric kit BML-AK 822)
# Format: biochemical
# experimental_setup: Table 5; evaluated at 10 μM concentration; read-out: % Inhibition (PTP-1B)
# Method: Assay was done according to the Kit manufacturers protocol, in brief the reaction was carried out in 96 well flat bottomed microtiter plate by the addition of assay buffer, solution of test compounds and diluted PTP1B enzyme. Enzyme reaction was initiated by addition of 50 μl of warmed 2× substrate then incubated the plate at 30° C. for 30 min. After incubation for 30 min. […] Absorbance was recorded at 620 nm. on a microplate reader.
measurement_type: inhibition at 10 µM

Some compounds with recorded inhibition at 10 µM:
INSERT INTO results (compound, measurement_type, reported_value) VALUES
  ('COC(=O)c1c(SC)cc(-c2ccc(Cl)cc2)c2c1-c1cn(-c3ccccc3)nc1CC2 [compound 2]', 'inhibition at 10 µM', '8%'),
  ('COC(=O)c1c(SC)cc(-c2ccc(F)cc2)c2c1-c1cn(-c3ccccc3)nc1CC2 [compound 8]', 'inhibition at 10 µM', '14.6%'),
  ('COC(=O)c1c(SC)cc(-c2ccc(C)cc2)c2c1-c1cn(-c3ccccc3)nc1CC2 [compound 5]', 'inhibition at 10 µM', '83.8%'),
  ('COC(=O)c1c(SC)cc(-c2cccc3ccccc23)c2c1-c1cn(-c3ccccc3)nc1CC2 [compound 6]', 'inhibition at 10 µM', '76.9%'),
  ('COC(=O)c1c(S(C)(=O)=O)cc(-c2ccc(C)cc2)c2c1-c1cn(-c3ccccc3)nc1CC2 [compound 12]', 'inhibition at 10 µM', '26.4%');

Record inhibition at 10 µM for all entries; do not skip any.
1. COC(=O)c1c(SC)cc(-c2ccccc2)c2c1-c1cn(-c3ccccc3)nc1CC2 [compound 4]
2. COC(=O)c1c(S(C)(=O)=O)cc(-c2ccc(F)cc2)c2c1-c1cn(-c3ccccc3)nc1CC2 [compound 10]
3. COC(=O)c1c(SC)cc(-c2cccs2)c2c1-c1cn(-c3ccccc3)nc1CC2 [compound 7]

16.4%
1.52%
12.7%

----------
Record form. Attribute: melting point. Fill in for each entry.

Some compounds with recorded melting point:
INSERT INTO assay_data (smiles, measurement_type, reported_value) VALUES
  ('COC(=O)c1c(SC)cc(-c2ccc(C)cc2)c2c1-c1cn(-c3ccccc3)nc1CC2', 'melting point', '178 to 180 °C'),
  ('COC(=O)c1c(SC)cc(-c2cccs2)c2c1-c1cn(-c3ccccc3)nc1CC2', 'melting point', '174 to 176 °C');

Record melting point for all entries; do not skip any.
1. COC(=O)c1c(S(C)(=O)=O)cc(-c2cccc3ccccc23)c2c1-c1cn(-c3ccccc3)nc1CC2
2. COC(=O)c1c(SC)cc(-c2ccc(OC)cc2)c2c1-c1cn(-c3ccccc3)nc1CC2
3. COC(=O)c1c(SC)cc(-c2ccc(Cl)cc2)c2c1-c1cn(-c3ccccc3)nc1CC2
4. COC(=O)c1c(SC)cc(-c2ccc(Br)cc2)c2c1-c1cn(-c3ccccc3)nc1CC2

["204 to 206 °C", "172 to 174 °C", "159 to 162 °C", "164 to 166 °C"]

Record melting point for all entries; do not skip any.
1. COC(=O)c1c(SC)cc(-c2ccc3ccccc3c2)c2c1-c1cn(-c3ccccc3)nc1C2
2. COC(=O)c1c(S(C)(=O)=O)cc(-c2ccc(F)cc2)c2c1-c1cn(-c3ccccc3)nc1CC2
3. COC(=O)c1c(SC)cc(-c2cccc3ccccc23)c2c1-c1cn(-c3ccccc3)nc1CC2

235 to 237 °C
245 to 247 °C
182 to 184 °C
